system: larvae of the banded cucumber beetle (Diabrotica balteata); experiment: Diabrotica balteata spray test; type: in vivo; conditions: 168 h, 100 g/ha (=32 μg/well), wheat seeds, after 7 days, read-out: efficacy (seedling growth)
property_label: pest or weed control at 32 µg/disc, 100 g/ha (%)
Hi! Could you send only the number? It should be in %, unit omitted.

Some solved cases for reference:
C[C@H](NC(=O)c1cc(OC(F)(F)F)cc(S(C)(=O)=O)c1)c1nc(C2CC2)nn1-c1ncc(C#N)s1 [I-48] :: 100
C[C@H](NC(=O)c1cc(C(F)(F)F)cc(S(C)(=O)=O)c1)c1nc(C2CC2)nn1-c1ncc(C#N)s1 [I-103] :: 100
CCN(C)C(=O)c1cnc(-n2nc(C)nc2[C@H](C)NC(=O)c2cc(OC(F)(F)F)cc(C3CC3)c2)s1 [I-129] :: 100
C[C@H](NC(=O)c1cc(Br)cc(OC(F)F)c1)c1ncnn1-c1ncc(C(=O)N(C)C)s1 [I-115] :: 100

Param readout = pest or weed control at 32 µg/disc, 100 g/ha; param system = larvae of the banded cucumber beetle (Diabrotica balteata); param query = C[C@H](NC(=O)c1cc(OC(F)(F)F)cc(S(=O)(=O)C2CC2)c1)c1ncnn1-c1ncc(C#N)s1 [I-61] ; response: value 100

Param readout = pest or weed control at 32 µg/disc, 100 g/ha; param system = larvae of the banded cucumber beetle (Diabrotica balteata); param query = C[C@H](NC(=O)c1cc(C(F)(F)F)cc(S(C)(=O)=O)c1)c1ncnn1-c1ncc(C(=O)N(C)C)s1 [I-65] ; response: value 100

Param readout = pest or weed control at 32 µg/disc, 100 g/ha; param system = larvae of the banded cucumber beetle (Diabrotica balteata); param query = CNC(=O)c1cnc(-n2ncnc2[C@H](C)NC(=O)c2cc(Br)cc(OC(F)(F)F)c2)s1 [I-111] ; response: value 100

Param readout = pest or weed control at 32 µg/disc, 100 g/ha; param system = larvae of the banded cucumber beetle (Diabrotica balteata); param query = Cc1nc([C@H](C)NC(=O)c2cc(Cl)cc(S(=O)(=O)C(F)F)c2)n(-c2ncc(C#N)s2)n1 [I-158] ; response: value 100

Param readout = pest or weed control at 32 µg/disc, 100 g/ha; param system = larvae of the banded cucumber beetle (Diabrotica balteata); param query = CNC(=O)c1cnc(-n2nc(C)nc2[C@H](C)NC(=O)c2cc(C(F)(F)F)cc(C(F)(F)F)c2)s1 [I-102] ; response: value 100

Param readout = pest or weed control at 32 µg/disc, 100 g/ha; param system = larvae of the banded cucumber beetle (Diabrotica balteata); param query = CNC(=O)c1cnc(-n2ncnc2[C@H](C)NC(=O)c2cc(Cl)cc(S(=O)(=O)C(F)(F)F)c2)s1 [I-110] ; response: value 100
